Record form. Attribute: T/C. Fill in for each entry.
Tested on: L1210 leukemia ip in BDF1 mice, survival T/C
Test: NCI In Vivo Anticancer Drug Screen. Data for tumor model L1210 Leukemia (intraperitoneal) in B6D2F1 (BDF1) mice
Details: endpoint: mean survival time; dose: 200.0 mg/kg/injection; schedule: Q01DX001 (ip); vehicle: Klucel (hydroxypropylcellulose) (HPC); higher = longer survival
Toxic doses and inconclusive results are not listed.

Recorded results for 5 compounds are shown here.
# compound, measurement-label, reported-value
data = [
    ("O=C(NCCCl)NCC1CCCCO1 (centres undefined)", "T/C", "98 % of control"),
    ("COc1cc2c(c(OC)c1OC)-c1ccc(=O)c(OC)cc1[C@@H](NC(=O)CCl)CC2", "T/C", "98 % of control"),
    ("Cc1cc(C)c(N(CC(=O)O)S(=O)(=O)c2ccccc2)c(Sc2ccccc2)c1", "T/C", "98 % of control"),
    ("O=C(C(CO)C(CO)C(=O)N1Cc2cc3ccccc3nc2C1)N1Cc2cc3ccccc3nc2C1 (centres undefined)", "T/C", "95 % of control"),
    ("O=C(COc1ccccc1)Oc1c(Cl)c(Cl)c(Cl)c(Cl)c1Cl", "T/C", "92 % of control"),
]

Please state, for each entry, its recorded T/C.
1. Cc1ccc(Br)c2c1CCC2=O
2. CSc1nc2ncncc2c(=O)[nH]1
3. Nc1ccc(OCc2nc(N)nc(N)c2-c2ccc(Cl)cc2)cc1
4. COC1=CC(C)C2CC3OC(O)CC4C(C)=C(OC)C(=O)C(C2(C)C1=O)C34C (centres undefined)

[reply]
1: 100 % of control; 2: 100 % of control; 3: 105 % of control; 4: 105 % of control

* * *

System: L1210 leukemia ip in BDF1 mice, survival T/C
Assay: NCI In Vivo Anticancer Drug Screen. Data for tumor model L1210 Leukemia (intraperitoneal) in B6D2F1 (BDF1) mice
Details: endpoint: mean survival time; dose: 200.0 mg/kg/injection; schedule: Q01DX001 (ip); vehicle: saline with Tween-80; higher = longer survival
Toxic doses and inconclusive results are not listed.
Record form. Attribute: T/C. Fill in for each entry.

Recorded results for 4 compounds are shown here.
# compound, measurement-target, measurement-label, reported-value
rows = [
    ("O=Cc1[nH]c(=S)[nH]c(=O)c1Cc1c(Cl)cccc1Cl", "L1210 leukemia ip in BDF1 mice, survival T/C", "T/C", "101 % of control"),
    ("NS(=O)(=O)c1ccc(NC(=O)Nc2ccccc2F)cc1", "L1210 leukemia ip in BDF1 mice, survival T/C", "T/C", "101 % of control"),
    ("N=C(c1ccccc1)c1ccccc1", "L1210 leukemia ip in BDF1 mice, survival T/C", "T/C", "101 % of control"),
    ("Nc1nc(N)c(-c2ccc(Cl)cc2)c(CCc2cccc(NC(=O)c3cccc(S(=O)(=O)F)c3)c2)n1", "L1210 leukemia ip in BDF1 mice, survival T/C", "T/C", "95 % of control"),
]

Continue with the compound presented below.
Measured T/C (L1210 leukemia ip in BDF1 mice, survival T/C), entry CC(=O)OCC1OC(Sc2ccc([N+](=O)[O-])cc2[N+](=O)[O-])C(OC(C)=O)C(OC(C)=O)C1OC(C)=O (stereo not given) : 101 % of control

* * *

System: L1210 leukemia ip in BDF1 mice, survival T/C
Test: NCI In Vivo Anticancer Drug Screen. Data for tumor model L1210 Leukemia (intraperitoneal) in B6D2F1 (BDF1) mice
Conditions: endpoint: mean survival time; dose: 25.0 mg/kg/injection; schedule: Q04DX003 (ip); vehicle: Klucel (hydroxypropylcellulose) (HPC); higher = longer survival
Toxic doses and inconclusive results are not listed.
measurement-label: T/C

# molecule, T/C
data = [
    ("CC(=O)NC(C)(C)CC(C)(C)C", "96 % of control"),
]

Please state, for each entry, its recorded T/C.
1. OC(CCN1CCCCC1)(c1ccccc1)C1CCCC1 (configuration not stated)
2. CCC(CCN(CC=C(C)C)CC=C(C)C)(C(N)=O)c1cccc2ccccc12 (configuration not stated)

[reply]
1. 100 % of control
2. 102 % of control

Please state, for each entry, its recorded T/C.
1. Cn1c(N)c(C=O)c(=O)n(C)c1=O
2. CS(=O)(=O)OCCCCCCCCOS(C)(=O)=O
3. CCOC(=O)C1(C(=O)OCC)C(C)CC2Nc3ccccc3C(=O)N21 (configuration not stated)
4. CCN(CC)CCN(CCO)Cc1ccccc1

[reply]
1: 105 % of control; 2: 112 % of control; 3: 87 % of control; 4: 98 % of control

* * *

Tested on: L1210 leukemia ip in BDF1 mice, survival T/C
Test: NCI In Vivo Anticancer Drug Screen. Data for tumor model L1210 Leukemia (intraperitoneal) in B6D2F1 (BDF1) mice
Conditions: endpoint: mean survival time; dose: 100.0 mg/kg/injection; schedule: Q04DX003 (ip); vehicle: saline; higher = longer survival
Toxic doses and inconclusive results are not listed.
Record form. Attribute: T/C. Fill in for each entry.

Recorded results for 5 compounds are shown here.
# compound, T/C
records = [
    ("O=C(CCBr)N1CCN(C(=O)CCBr)CC1", "111 % of control"),
    ("CCC(C)C(CCCN1CCOCC1)(CNC(=O)CN(CC)CC)c1cccc2ccccc12 (stereo unspecified)", "102 % of control"),
    ("CCC(C)C(CCN1CCCCC1)(CNC(=O)CN(CC)CC)c1cccc2ccccc12 (stereo unspecified)", "103 % of control"),
    ("COc1cc(C=NC(CO)C(=O)O)ccc1O.COc1cc(C=NC(CO)C(=O)O)ccc1O.[Fe] (stereo unspecified)", "88 % of control"),
    ("CCOP(=O)(NN(C)C)OCC", "101 % of control"),
]

Continue with the compound presented below.
// field: T/C; key: COc1ccc2c(c1OC)C(=O)OC2c1ccc(O)c(Br)c1 (stereo unspecified) ; value = 109 % of control

* * *

Record form. Attribute: T/C. Fill in for each entry.
Test system: L1210 leukemia ip in BDF1 mice, survival T/C
Experiment: NCI In Vivo Anticancer Drug Screen. Data for tumor model L1210 Leukemia (intraperitoneal) in B6D2F1 (BDF1) mice
Conditions: endpoint: mean survival time; dose: 40.0 mg/kg/injection; schedule: Q01DX001 (ip); vehicle: saline; higher = longer survival
Inconclusive results and toxic doses are left out.

Please state, for each entry, its recorded T/C.
1. CC1(C(Cl)Cl)CCCCC1=O (stereo unspecified)
2. Cc1cc(N(CCCl)CCCl)c(C)cc1NC(=O)c1ccccc1

[reply]
1. 100 % of control
2. 122 % of control

Please state, for each entry, its recorded T/C.
1. O=C(O)c1ccc(N/N=C\c2cc(=O)[nH]c(=O)[nH]2)cc1
2. Cc1cc(CSC(=N)N)c(CSC(=N)N)cc1C
3. Cc1nc(C(=O)NN)co1
4. c1ccc(CC[n+]2ccccc2)cc1

[reply]
1: 97 % of control; 2: 94 % of control; 3: 101 % of control; 4: 95 % of control

* * *

Record form. Attribute: T/C. Fill in for each entry.
Tested on: L1210 leukemia ip in BDF1 mice, survival T/C
Test: NCI In Vivo Anticancer Drug Screen. Data for tumor model L1210 Leukemia (intraperitoneal) in B6D2F1 (BDF1) mice
Details: endpoint: mean survival time; dose: 75.0 mg/kg/injection; schedule: Q04DX003 (ip); vehicle: saline; higher = longer survival
Protocol: The antitumor activity of compounds was measured in mice bearing transplantable tumors. Survival or tumor size were measured and the results are expressed as the measurement made in the treated group (T) divided by the measurement made in the vehicle treated control group (C). The tumor model used in this assay is L1210 Leukemia (intraperitoneal) in B6D2F1 (BDF1) mice
Inconclusive results and toxic doses are left out.

Please state, for each entry, its recorded T/C.
1. Cc1ccc(S(=O)(=O)N(C)c2ccc(C(=O)O)cc2F)cc1
2. CN(C)C(=O)Nc1cccnc1
3. Cc1cc(Cl)cc(C)c1O
4. S=C([S-])N1CCCCC1.S=C([S-])N1CCCCC1.[Zn]

[reply]
100 % of control
97 % of control
114 % of control
96 % of control

* * *

Record form. Attribute: T/C. Fill in for each entry.
Tested on: L1210 leukemia ip in BDF1 mice, survival T/C
Test: NCI In Vivo Anticancer Drug Screen. Data for tumor model L1210 Leukemia (intraperitoneal) in B6D2F1 (BDF1) mice
Conditions: endpoint: mean survival time; dose: 100.0 mg/kg/injection; schedule: Q04DX002 (ip); vehicle: saline with Tween-80; higher = longer survival
Toxic doses and inconclusive results are not listed.

Recorded results for 3 compounds are shown here.
# compound, T/C
records = [
    ("Cc1ccc(S(=O)(=O)Nc2ccc(-c3ccc(NS(=O)(=O)c4ccc(C)cc4)cc3)cc2)cc1", "95 % of control"),
    ("CCCCSCCO", "96 % of control"),
    ("N[n+]1ccccc1", "102 % of control"),
]

Please state, for each entry, its recorded T/C.
1. O=C(CC(=O)c1ccccc1)c1ccccc1
2. O=C(N/N=C\c1ccc(F)cc1)N/N=C/c1ccc(F)cc1
3. O=C(O)[C@@H]1C[C@H]1c1ccccc1
4. C/C=C/c1cc(C)cc(C)c1OC(C)CC (stereo unspecified)
5. Clc1ccc(CC[PH+]2CC=CC2)cc1.Clc1ccc(CC[PH+]2CC=CC2)cc1.[Cl][Ni][Cl]

[reply]
97 % of control
93 % of control
114 % of control
104 % of control
107 % of control

Provenance of the data: PubChem BioAssay AID248
